- TEST PARAMETERS: 328.15 K; 101.33 kPa; Liquid; Wayne-Kerr 6430B Autobalance Bridge electrode
OUTCOME MEASURE: electrical conductivity

### Prompt # get_value(readout='electrical conductivity', item= CCCC[n+]1ccn(C)c1.O=C[O-] [3-butyl-1-methyl-1H-imidazolium formate] )
### Response 0.613 S/m

### Prompt Sample CC(=O)[O-].CCCCn1cc[n+](C)c1 [1-butyl-3-methylimidazolium acetate] — what was its electrical conductivity?
### Response 0.29 S/m

### Prompt Could you tell me which electrical conductivity is on file for CCCC(=O)[O-].CCCC[n+]1ccn(C)c1 [3-butyl-1-methyl-1H-imidazolium butanoate] ?
### Response 0.165 S/m

### Prompt What measured electrical conductivity goes with CCC(=O)[O-].CCCC[n+]1ccn(C)c1 [3-butyl-1-methyl-1H-imidazolium propanoate] ?
### Response 0.248 S/m
